Recorded pIC50, one value per entry.
protocol_details: Cytotoxicity against human PAXF 546L cells by propidium iodide staining
Type: functional, cell-based
pIC50 is defined as minus the log10 of a concentration measured in mol/L.

Measured pIC50, CCCCCCCCCCCC/C=C\N(NC(=O)COC)C(=O)CCCCCCCCC [HYDRAZIDOMYCIN A] : 6.18

---
The compound listed as CCCCCCC/C=C\CCCCC/C=C\N(NC(=O)COC)C(=O)CCCCCCCCC [HYDRAZIDOMYCIN B] has a reported pIC50 of 4.97

* * *

protocol_details: Cytotoxicity against human NIH:OVCAR3 cells by propidium iodide staining
Type: functional, cell-based
details: OVCAR-3
Examples of molecules with documented IC50 follow.
Lab book: enter the figure in µM, no units written.

The molecule identified as CCCCCCCCCCCC/C=C\N(NC(=O)COC)C(=O)CCCCCCCCC [HYDRAZIDOMYCIN A] registered its IC50 at 1.1

***
// IC50 value for CCCCCCC/C=C\CCCCC/C=C\N(NC(=O)COC)C(=O)CCCCCCCCC [HYDRAZIDOMYCIN B] : 18.5

* * *

System: HCT-116
protocol_details: Cytotoxicity against human HCT116 cells by propidium iodide staining
Assay type: functional, cell-based
Catalogue of IC50 readings, one per entry.
# unit: µM | format: bare number

The measured IC50 associated with CCCCCCCCCCCC/C=C\N(NC(=O)COC)C(=O)CCCCCCCCC [HYDRAZIDOMYCIN A] reads 0.758

Proceed to the following item.
IC50 measured on CCCCCCC/C=C\CCCCC/C=C\N(NC(=O)COC)C(=O)CCCCCCCCC [HYDRAZIDOMYCIN B] = 19.4

* * *

Listing of recorded pIC50 by entry.
protocol_details: Cytotoxicity against human LXFL 529L cells by propidium iodide staining
Format: functional, cell-based
Units for pIC50: none; it is -log10 of a concentration expressed in mol/L.

For this molecule ( CCCCCCC/C=C\CCCCC/C=C\N(NC(=O)COC)C(=O)CCCCCCCCC [HYDRAZIDOMYCIN B] ), measured pIC50 is 4.76

Others:
Documented pIC50 of CCCCCCCCCCCC/C=C\N(NC(=O)COC)C(=O)CCCCCCCCC [HYDRAZIDOMYCIN A] : 5.67

* * *

protocol_details: Cytotoxicity against human PXF 1118L cells by propidium iodide staining
Format: functional, cell-based
measured_endpoint: IC50 (µM)
Report the figure in µM without appending any unit label.

For this compound ( CCCCCCC/C=C\CCCCC/C=C\N(NC(=O)COC)C(=O)CCCCCCCCC [HYDRAZIDOMYCIN B] ), measured IC50 is 30

The reported IC50 of the compound CCCCCCCCCCCC/C=C\N(NC(=O)COC)C(=O)CCCCCCCCC [HYDRAZIDOMYCIN A] was 2.4

* * *

Parameter pIC50: see the listing below.
protocol_details: Cytotoxicity against human OVXF 899L cells by propidium iodide staining
Assay type: functional, cell-based
# pIC50 = -log10(concentration in molar units)

Please fill in: pIC50 reported for CCCCCCCCCCCC/C=C\N(NC(=O)COC)C(=O)CCCCCCCCC [HYDRAZIDOMYCIN A] = 5.87

According to the records, this compound CCCCCCC/C=C\CCCCC/C=C\N(NC(=O)COC)C(=O)CCCCCCCCC [HYDRAZIDOMYCIN B] displays pIC50 of 4.72

* * *

protocol_details: Cytotoxicity against human RXF 393NL cells by propidium iodide staining
Format: functional, cell-based
measured_endpoint: pIC50
Here pIC50 is given on a logarithmic scale as minus log10 of the concentration in mol/L.

// field: pIC50; key: CCCCCCCCCCCC/C=C\N(NC(=O)COC)C(=O)CCCCCCCCC [HYDRAZIDOMYCIN A] ; value = 5.95

--- query ---
So, CCCCCCC/C=C\CCCCC/C=C\N(NC(=O)COC)C(=O)CCCCCCCCC [HYDRAZIDOMYCIN B] ? Its pIC50 was 4.96

* * *

Test system: HT-29
protocol_details: Cytotoxicity against human HT-29 cells by propidium iodide staining
Format: functional, cell-based
measured_endpoint: IC50 (µM)
Give just the number in µM; leave the unit off.

Per the records, this molecule ( CCCCCCCCCCCC/C=C\N(NC(=O)COC)C(=O)CCCCCCCCC [HYDRAZIDOMYCIN A] ) has IC50 equal to 0.464

Continuing:
Form: molecule = CCCCCCC/C=C\CCCCC/C=C\N(NC(=O)COC)C(=O)CCCCCCCCC [HYDRAZIDOMYCIN B] ; IC50 = 6.54

* * *

protocol_details: Cytotoxicity against human RXF 486L cells by propidium iodide staining
Assay type: functional, cell-based
measured_endpoint: IC50 (µM)
Answer in µM, number only, no unit symbol.

Quick note, IC50 for CCCCCCCCCCCC/C=C\N(NC(=O)COC)C(=O)CCCCCCCCC [HYDRAZIDOMYCIN A] landed at 1.62

Let's switch to this compound now.
So, CCCCCCC/C=C\CCCCC/C=C\N(NC(=O)COC)C(=O)CCCCCCCCC [HYDRAZIDOMYCIN B] ? Its IC50 was 21.2

* * *

protocol_details: Cytotoxicity against human MAXF 401NL cells by propidium iodide staining
Assay type: functional, cell-based
measured_endpoint: IC50 (nM)
Response body: numeric value in nM, unit text excluded.

The measured IC50 associated with CCCCCCCCCCCC/C=C\N(NC(=O)COC)C(=O)CCCCCCCCC [HYDRAZIDOMYCIN A] reads 471

Now take the following compound into account.
// IC50 lookup, compound = CCCCCCC/C=C\CCCCC/C=C\N(NC(=O)COC)C(=O)CCCCCCCCC [HYDRAZIDOMYCIN B] , result: 876

* * *

Catalogue of compounds with associated IC50
protocol_details: Cytotoxicity against human PC3M cells by propidium iodide staining
Format: functional, cell-based
details: PC-3M
# output: bare number, implied unit nM

According to the records, this compound CCCCCCCCCCCC/C=C\N(NC(=O)COC)C(=O)CCCCCCCCC [HYDRAZIDOMYCIN A] displays IC50 of 105

Others:
The reported IC50 of the compound CCCCCCC/C=C\CCCCC/C=C\N(NC(=O)COC)C(=O)CCCCCCCCC [HYDRAZIDOMYCIN B] was 1730

* * *

protocol_details: Cytotoxicity against human BXF 1218L cells by propidium iodide staining
Type: functional, cell-based
Catalogue of compounds with associated pIC50
// pIC50 here means minus log10 of the molar concentration (mol/L)

pIC50 reading for CCCCCCCCCCCC/C=C\N(NC(=O)COC)C(=O)CCCCCCCCC [HYDRAZIDOMYCIN A] : 5.61

Attention now shifts to the item below.
The compound identified as CCCCCCC/C=C\CCCCC/C=C\N(NC(=O)COC)C(=O)CCCCCCCCC [HYDRAZIDOMYCIN B] registered its pIC50 at 4.71

Cited source for all entries: ChEMBL document CHEMBL1833908
